# key: entry, value: Ratio IC50
species on record: Homo sapiens; test: Selectivity for human ETA receptor over human ETB receptor
Returns: the value as a bare number; no unit string appended.

INSERT INTO measurements (structureassmiles, assaymetric, reportedmeasurement) VALUES
  ('CC(=O)CC(=O)CCc1ccc(NC(=O)CCOCCOCCOCCOCCOc2ccc(CCC(=O)N(C)Cc3cc(-c4ncco4)ccc3-c3ccccc3S(=O)(=O)Nc3ccno3)cc2)cc1', 'Ratio IC50', 228);

Asked: Respond only with Ratio IC50 recorded for CC(=O)CC(=O)CCc1ccc(NC(=O)CCOCCOCCOCCOCCOCCOCCOCCOCCOCCOCCOCCNC(=O)CCCC(=O)N(C)Cc2cc(-c3ncco3)ccc2-c2ccccc2S(=O)(=O)Nc2ccno2)cc1
Given back: 564

Asked: Item CC(=O)CC(=O)CCc1ccc(NC(=O)CCOCCOCCOCCOCCOc2ccc(CC(=O)N(C)Cc3cc(-c4ncco4)ccc3-c3ccccc3S(=O)(=O)Nc3ccno3)cc2)cc1 : provide Ratio IC50
Given back: 420

Asked: Provide only the value of recorded Ratio IC50 for CN(Cc1cc(-c2ncco2)ccc1-c1ccccc1S(=O)(=O)Nc1ccno1)C(=O)CC(C)(C)C
Given back: 8980

Asked: Item CC(=O)CC(=O)CCc1ccc(NC(=O)CCOCCOCCOCCOCCOCCOCCOCCC(=O)N(C)Cc2cc(-c3ncco3)ccc2-c2ccccc2S(=O)(=O)Nc2ccno2)cc1 : provide Ratio IC50
Given back: 564

Asked: Let me know recorded Ratio IC50 for CC(=O)CC(=O)CCc1ccc(NC(=O)CCOCCOCCOCCOCC(=O)N(C)Cc2cc(-c3ncco3)ccc2-c2ccccc2S(=O)(=O)Nc2ccno2)cc1 , thanks.
Given back: 1120
